These entries and their values trace back to patent US20250136593A1.

# assayTarget: ternary complex between BCL-XL and CRBN-DDB1 (Homo sapiens, UniProt Q07817+Q96SW2)
# Sequence (Q07817 whole entry): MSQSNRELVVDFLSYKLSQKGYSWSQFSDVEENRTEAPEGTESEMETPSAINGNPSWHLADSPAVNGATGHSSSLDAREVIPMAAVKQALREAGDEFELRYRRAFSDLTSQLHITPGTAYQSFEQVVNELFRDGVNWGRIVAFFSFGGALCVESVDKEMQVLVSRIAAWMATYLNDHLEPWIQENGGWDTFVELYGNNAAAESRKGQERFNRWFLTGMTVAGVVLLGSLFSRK
# Sequence (Q96SW2 whole entry): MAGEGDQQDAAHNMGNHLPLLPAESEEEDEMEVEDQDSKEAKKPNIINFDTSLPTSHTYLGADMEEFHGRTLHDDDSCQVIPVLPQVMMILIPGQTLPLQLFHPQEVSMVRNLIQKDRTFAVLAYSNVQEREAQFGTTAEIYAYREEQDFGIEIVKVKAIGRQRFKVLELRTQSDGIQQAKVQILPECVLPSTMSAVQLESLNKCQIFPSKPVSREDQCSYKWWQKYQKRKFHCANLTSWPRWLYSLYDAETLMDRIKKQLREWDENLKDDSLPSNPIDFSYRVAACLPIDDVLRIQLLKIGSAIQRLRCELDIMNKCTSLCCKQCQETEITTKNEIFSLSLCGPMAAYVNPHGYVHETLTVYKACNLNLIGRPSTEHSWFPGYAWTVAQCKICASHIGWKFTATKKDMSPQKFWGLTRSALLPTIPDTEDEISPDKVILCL
# Sequence (Q16531 whole entry partner): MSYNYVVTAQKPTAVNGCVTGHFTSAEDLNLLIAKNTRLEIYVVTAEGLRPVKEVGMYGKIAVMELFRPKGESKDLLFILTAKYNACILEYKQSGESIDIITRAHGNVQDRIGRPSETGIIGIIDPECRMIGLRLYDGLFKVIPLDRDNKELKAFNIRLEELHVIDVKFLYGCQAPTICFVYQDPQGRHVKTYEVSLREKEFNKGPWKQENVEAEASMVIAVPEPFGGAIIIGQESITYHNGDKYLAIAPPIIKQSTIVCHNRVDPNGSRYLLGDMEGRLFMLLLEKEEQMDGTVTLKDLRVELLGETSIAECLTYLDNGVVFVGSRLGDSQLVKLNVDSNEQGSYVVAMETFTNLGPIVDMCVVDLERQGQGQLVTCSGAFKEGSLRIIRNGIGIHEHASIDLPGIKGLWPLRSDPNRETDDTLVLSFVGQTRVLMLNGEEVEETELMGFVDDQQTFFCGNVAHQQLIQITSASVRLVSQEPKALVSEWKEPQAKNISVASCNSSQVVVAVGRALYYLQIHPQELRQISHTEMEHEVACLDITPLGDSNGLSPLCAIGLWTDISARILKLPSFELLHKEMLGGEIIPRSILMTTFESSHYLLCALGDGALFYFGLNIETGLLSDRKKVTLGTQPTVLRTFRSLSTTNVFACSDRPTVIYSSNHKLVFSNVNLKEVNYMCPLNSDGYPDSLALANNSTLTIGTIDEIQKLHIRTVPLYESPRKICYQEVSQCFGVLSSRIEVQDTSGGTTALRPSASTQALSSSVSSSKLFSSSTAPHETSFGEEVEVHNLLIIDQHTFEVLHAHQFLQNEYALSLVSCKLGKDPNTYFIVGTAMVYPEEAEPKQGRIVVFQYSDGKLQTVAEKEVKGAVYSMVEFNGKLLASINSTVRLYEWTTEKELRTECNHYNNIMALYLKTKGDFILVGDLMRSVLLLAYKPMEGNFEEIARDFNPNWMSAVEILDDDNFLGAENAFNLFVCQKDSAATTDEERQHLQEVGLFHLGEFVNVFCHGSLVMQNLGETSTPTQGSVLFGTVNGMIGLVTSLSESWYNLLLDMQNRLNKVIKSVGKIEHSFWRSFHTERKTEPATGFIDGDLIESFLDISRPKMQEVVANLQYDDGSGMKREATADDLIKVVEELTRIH
# assayProcedure: Compound-induced formation of ternary complex between BCL-XL and CRBN-DDB1 by AlphaLISA
# Type: biochemical
# Parameters: key: the number of + indicates the intensity of AlphaLISA peak signal; ++: the number of + indicates the intensity of AlphaLISA peak signal; +++: the number of + indicates the intensity of AlphaLISA peak signal; ++++: the number of + indicates the intensity of AlphaLISA peak signal; +++++: the number of + indicates the intensity of AlphaLISA peak signal
# testParameters: peak signal; 60 nM Strep-BCL-XL and 60 nM His-CRBN/DDB1
measurementName: AlphaLISA signal (PROTAC ternary complex signal intensity)

Guide cases for AlphaLISA signal (PROTAC ternary complex signal intensity), answers given:
C=Cc1cc(-c2ncc3c(n2)CN(C(=O)c2ccc(/C=C/c4ccc(C#CCN5CCN(CCCCCCOc6cccc7c6C(=O)N(C6CCC(=O)NC6=O)C7=O)CC5)cc4)cc2)CC3)cnc1C=C (centres unmarked) [Compound C3-3] : +
CNc1nc(-c2cnc3ccccc3c2)nc2c1CCN(C(=O)c1ccc(/C=C/c3ccc(C#CCN4CCN(CCCCC(=O)N[C@H](C(=O)N5C[C@H](O)C[C@H]5C(=O)NCc5ccc(-c6scnc6C)cc5)C(C)(C)C)CC4)cc3)cc1)C2 [Compound G1-4] : +
O=C1CCC(N2Cc3c(C#CCCCN4CCN(CC#Cc5ccc(/C=C/c6ccc(C(=O)N7CCc8cnc(-c9cnc%10ccccc%10c9)nc8C7)cc6)cc5)CC4)cccc3C2=O)C(=O)N1 (centres unmarked) [Compound D2-4] : +
CNc1nc(-c2cnc3ccccc3c2)nc2c1CCN(C(=O)c1ccc(/C=C/c3ccc(C#CCN4CCN(C(=O)CCCCCCC(=O)N[C@H](C(=O)N5C[C@H](O)C[C@H]5C(=O)NCc5ccc(-c6scnc6C)cc5)C(C)(C)C)CC4)cc3)cc1)C2 [Compound G2-6] : +

Here is another compound to look at.
Return AlphaLISA signal (PROTAC ternary complex signal intensity) (reported value) for this compound: C=Cc1cc(-c2nc3c(c(NC)n2)CCN(C(=O)c2ccc(COc4ccc(C#CCN5CCN(CCCCNc6cccc7c6C(=O)N(C6CCC(=O)NC6=O)C7=O)CC5)cc4)cc2)C3)cnc1C=C (centres unmarked) [Compound C2-2]
++++
